Target: AHR (Homo sapiens, UniProt P35869)
Sequence (P35869 11-848): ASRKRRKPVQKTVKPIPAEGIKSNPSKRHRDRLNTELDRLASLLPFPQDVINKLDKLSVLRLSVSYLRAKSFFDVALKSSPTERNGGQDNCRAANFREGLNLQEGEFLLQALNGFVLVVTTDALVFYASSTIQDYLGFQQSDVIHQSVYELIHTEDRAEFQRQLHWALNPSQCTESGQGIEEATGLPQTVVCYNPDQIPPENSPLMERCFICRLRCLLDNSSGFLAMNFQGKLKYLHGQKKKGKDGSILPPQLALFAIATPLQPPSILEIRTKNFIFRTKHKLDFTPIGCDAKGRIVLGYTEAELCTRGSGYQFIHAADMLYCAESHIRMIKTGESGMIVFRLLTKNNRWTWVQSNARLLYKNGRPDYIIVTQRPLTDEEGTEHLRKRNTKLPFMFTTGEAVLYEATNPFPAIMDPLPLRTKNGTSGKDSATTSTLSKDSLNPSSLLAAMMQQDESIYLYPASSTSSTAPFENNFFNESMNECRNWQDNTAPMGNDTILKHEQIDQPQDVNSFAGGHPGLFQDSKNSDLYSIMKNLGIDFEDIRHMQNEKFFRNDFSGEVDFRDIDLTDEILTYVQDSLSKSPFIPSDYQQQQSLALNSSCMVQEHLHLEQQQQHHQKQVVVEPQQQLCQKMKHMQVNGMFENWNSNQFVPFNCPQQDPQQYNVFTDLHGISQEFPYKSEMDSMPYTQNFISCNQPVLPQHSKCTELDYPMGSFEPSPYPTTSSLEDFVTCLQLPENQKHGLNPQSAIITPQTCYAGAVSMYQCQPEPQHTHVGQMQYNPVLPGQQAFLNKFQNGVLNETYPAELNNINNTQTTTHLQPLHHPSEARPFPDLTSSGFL
Assay: In vitro assay 2: agonism in human cell line (transactivation assay, U87 cells, DRE firefly luciferase reporter)
Assay type: cell-based
Design: host or cells: U87 glioblastoma cells, stably transfected with DRE firefly luciferase and renilla reporter constructs
Settings: no kynurenic acid, 20 hours, read-out: Assay 2: AHR-luc Hum Agonism IC50
pIC50: −log10 of the molar value.
metric: pIC50

molecule="Cn1cc(-n2nc(-c3ccc(C(F)(F)F)cc3)cc(C(=O)N[C@H](CO)C(F)(F)F)c2=O)cn1 [Example 36]" value_measured="< 4.70"
molecule="O=C(NCC1(O)CCC1)c1cc(-c2ccc(C(F)(F)F)cc2)nn(-c2cccnc2)c1=O [Example 189]" value_measured="< 4.70"
molecule="Cn1cc(-n2nc(-c3ccc(OC(F)F)cc3)cc(C(=O)NC(C(C)(C)O)C(F)(F)F)c2=O)cn1 (single isomer, unassigned) [Example 306]" value_measured="< 4.70"
molecule="CC(C)[C@@H](CO)NC(=O)c1cc(-c2ccc(Cl)cc2)nn(-c2cncc(F)c2)c1=O [Example 83]" value_measured="< 4.70"
molecule="O=C(N[C@@H]1COC[C@@H]1O)c1cc(-c2ccc(Cl)cc2)nn(-c2cncc(F)c2)c1=O (relative stereo) [Example 301]" value_measured="< 4.70"
molecule="C[C@@H](CO)NC(=O)c1cc(-c2ccc(Cl)cc2)nn(-c2cncc(F)c2)c1=O [Example 80]" value_measured="< 4.70"
molecule="C[C@H](NC(=O)c1cc(-c2ccc(CF)cc2)nn(-c2cccnc2)c1=O)C(C)(C)O [Example 288]" value_measured="< 4.70"
molecule="C[C@H](CO)NC(=O)c1cc(-c2ccc(Cl)cc2)nn(-c2cncc(F)c2)c1=O [Example 81]" value_measured="< 4.70"
molecule="C[C@@H](CO)NC(=O)c1cc(-c2ccc(Cl)cc2)nn(-c2cnsc2)c1=O [Example 194]" value_measured="< 4.70"
molecule="Cn1cc(-n2nc(-c3ccc(Cl)cc3)cc(C(=O)N[C@H]3COCC[C@H]3O)c2=O)cn1 [Example 61]" value_measured="< 4.70"
molecule="O=C(NC[C@H](O)C(F)(F)F)c1cc(-c2ccc(Cl)cc2)nn(-c2cncc(F)c2)c1=O [Example 128]" value_measured="< 4.70"
molecule="CC(C)(O)C(NC(=O)c1cc(-c2ccc(OC(F)(F)F)cc2)nn(-c2cccnc2)c1=O)C(F)(F)F (single isomer, unassigned; enantiomer 2) [Example 137]" value_measured="< 4.70"
molecule="O=C(NC(CO)CO)c1cc(-c2ccc(Cl)cc2)nn(-c2cncc(F)c2)c1=O [Example 84]" value_measured="< 4.70"
molecule="O=C(NC[C@H](O)C(F)(F)F)c1cc(-c2ccc(C(F)(F)F)cc2)nn(-c2cn[nH]c2)c1=O [Example 216]" value_measured="< 4.70"
molecule="O=C(N[C@H](CO)CF)c1cc(-c2ccc(Cl)cc2)nn(-c2cnsc2)c1=O [Example 201]" value_measured="< 4.70"
